boiling point listing for selected compounds.
// units = °C; emit number, no label

Q. // returns reported boiling point for input CCc1cccc(CC)c1N
A. 236

Q. Requested read-out: boiling point. Entry: O=C1CCCO1
A. 204

Q. Would you kindly share the measured boiling point for Nc1ccc(F)cc1F ?
A. 170

Q. Return reported boiling point; argument: CCCC(C)(CC)CCC
A. 161

Q. Record request: boiling point value, item C1=CCCCC=C1
A. 120

Q. Need boiling point of CN(C(=O)N(C)c1ccccc1)c1ccccc1 , thanks.
A. 350

Q. Requested field: boiling point. Item: CCC(C)CCC(C)(O)CC (centres undefined)
A. 202

Q. Quick check: boiling point of CC1=CC(=O)OC1=O ?
A. 214

Q. What measured boiling point goes with CCc1cccc2c1CCCC2 ?
A. 245

====

We use 70 °C as the dividing line for melting point: on or above the line is TRUE, below is FALSE.

Here's what some known entries look like.
>>> assigned_label("CC(=O)CC(c1ccc(Cl)cc1)c1c(O)c2ccccc2oc1=O (stereo unspecified)")
"TRUE"
>>> assigned_label("CC(C)(C)C(=O)C(C)(C)C")
"FALSE"
>>> assigned_label("Cc1ccc2nc(C)[nH]c2c1")
"TRUE"

Q. Would you say C=Cc1ccco1 shows melting point at minimum 70 °C?
A. FALSE

Q. Given the entry Cc1nn(C)c(OCC(=O)c2ccccc2)c1C(=O)c1ccc(Cl)cc1Cl , answer whether its melting point meets or surpasses 70 °C.
A. TRUE

Q. Hello, I need to know if OCC=Cc1ccccc1 has measured melting point not below 70 °C. Thanks!
A. FALSE

Q. Does CCC1CCC1 have a reported melting point of at least 70 °C?
A. FALSE

Q. Does the reported melting point for C=CCC1(CC=C)C(=O)NC(=O)NC1=O fall at or above the 70 °C mark?
A. TRUE

Q. Would you say CN=C=S shows melting point at minimum 70 °C?
A. FALSE

Q. Could you verify whether the entry CCC(Br)C(C)Br (stereo unspecified) shows melting point of no less than 70 °C?
A. FALSE

Q. Test whether the compound CC(C)=CCC1=C(O)C(C(=O)CC(C)C)=C(O)C(CC=C(C)C)(CC=C(C)C)C1=O records melting point of 70 °C or higher.
A. TRUE

====

Endpoint Name: melting point (°C)
Field format: number, assumed °C, no unit text.

The following molecules have reported results that may help.
>>> measured_result("O=[N+]([O-])c1cccc(Cl)c1")
46
>>> measured_result("CCCCCCCCCCCCCCCCCCC1CCCCC1")
41.6
>>> measured_result("O=C(CBr)c1ccccc1")
50.5
>>> measured_result("Cc1cccc(NC(=O)c2ccccc2C(=O)O)c1")
150
>>> measured_result("Fc1ccc(F)cc1")
-13
>>> measured_result("COc1ccc(CC(=O)O)cc1")
87
>>> measured_result("Clc1ccc(Cl)nc1")
60.5
>>> measured_result("Oc1c(F)c(F)cc(F)c1F")
38
>>> measured_result("C[C@]12CC[C@H]3[C@@H](CCC4=CC(=O)CC[C@@H]43)[C@@H]1CC[C@@H]2O")
118
>>> measured_result("CC1=NN(c2ccccc2)C(=O)C1")
129

Q. melting point lookup needed for Cl.NCCc1ccc(O)c(O)c1 , thanks.
A. 249

Q. Look up melting point for this molecule: CC(C)(C)c1ccc(C(=O)O)cc1
A. 164

Q. Which melting point is listed for CN(C)C(CSS(=O)(=O)c1ccccc1)CSS(=O)(=O)c1ccccc1 ?
A. 83.5

Q. May I ask what melting point has been recorded for NNC(N)=S ?
A. 183

Q. Look up melting point: CCCCCCCCCCCCCCCCCC(=O)OC(C)C
A. 28
